B1: HDAC6 (parent)
chain: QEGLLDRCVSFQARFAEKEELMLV

- Variants of: B1
- experiment: protein stability index of a GFP-peptide fusion (GPS, HEK-293T) (PSI 1-6); higher = more stable;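 note: lentivirally expressed fusions sorted by FACS into six bins by GFP to DsRed ratio, PSI derived from sequencing read proportions per bin multiplied by bin number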
- cond: c terminus: a fixed tail appended
Label scheme for protein stability index: lower than 2 is 0, 2 and above is 1.

Check out these entries, answers already filled in.
// query Quick check: does `F15Y` have protein stability index greater than or equal to 2?
// result 0

// query Hi team, for `L21E` , is the recorded protein stability index at or above 2?
// result 1

// query # check: protein stability index of `L5M` is greater than or equal to 2
// result 0

// query Determine whether this variant has protein stability index no lower than 2: `L5A`
// result 0

// query Kindly determine if protein stability index recorded for `E19W` is above or exactly 2.
// result 1

Others:
// query Test whether the variant `S10T` records protein stability index of 2 or higher.
// result 1
